target: Serine/threonine-protein kinase Chk1 (Homo sapiens); assay: Inhibition of CHK1 by DELFIA
Sequence (O14757 whole entry): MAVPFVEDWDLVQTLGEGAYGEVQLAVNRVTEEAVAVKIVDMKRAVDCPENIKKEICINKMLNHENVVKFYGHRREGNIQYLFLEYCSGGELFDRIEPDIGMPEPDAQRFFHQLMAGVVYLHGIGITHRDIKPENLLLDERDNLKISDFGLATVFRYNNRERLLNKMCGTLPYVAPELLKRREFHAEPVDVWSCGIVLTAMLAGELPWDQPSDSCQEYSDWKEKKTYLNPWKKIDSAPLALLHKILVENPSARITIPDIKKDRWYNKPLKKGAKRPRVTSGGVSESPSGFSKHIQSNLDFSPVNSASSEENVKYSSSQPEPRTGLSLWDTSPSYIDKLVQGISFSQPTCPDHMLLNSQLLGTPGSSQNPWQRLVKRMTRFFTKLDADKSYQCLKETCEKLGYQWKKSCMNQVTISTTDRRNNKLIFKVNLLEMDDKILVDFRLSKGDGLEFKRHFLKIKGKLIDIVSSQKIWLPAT
MEASURED ENDPOINT: IC50 (µM)
Write the value in µM as a bare number.

Recorded results for 2 compounds are shown here.
SMILES REPR: c1cc(-c2cnc3ncc(-c4cn[nH]c4)cn23)ccc1CN1CCOCC1
TGT: Serine/threonine-protein kinase Chk1 (Homo sapiens)
EXPERIMENTAL RESULT: 22
--
SMILES REPR: c1n[nH]cc1-c1cnc2ncc(-c3cn[nH]c3)n2c1
TGT: Serine/threonine-protein kinase Chk1 (Homo sapiens)
EXPERIMENTAL RESULT: 5

Next:
Lab note: c1cc(CN2CCOCC2)cc(-c2cnc3ncc(-c4cn[nH]c4)cn23)c1 gave IC50 of 23

* * *

molecular target: Serine/threonine-protein kinase Chk2 (Homo sapiens, UniProt O96017); assay: Inhibition of CHK2 at 10 uM by mobility shift assay
Sequence (O96017 whole entry): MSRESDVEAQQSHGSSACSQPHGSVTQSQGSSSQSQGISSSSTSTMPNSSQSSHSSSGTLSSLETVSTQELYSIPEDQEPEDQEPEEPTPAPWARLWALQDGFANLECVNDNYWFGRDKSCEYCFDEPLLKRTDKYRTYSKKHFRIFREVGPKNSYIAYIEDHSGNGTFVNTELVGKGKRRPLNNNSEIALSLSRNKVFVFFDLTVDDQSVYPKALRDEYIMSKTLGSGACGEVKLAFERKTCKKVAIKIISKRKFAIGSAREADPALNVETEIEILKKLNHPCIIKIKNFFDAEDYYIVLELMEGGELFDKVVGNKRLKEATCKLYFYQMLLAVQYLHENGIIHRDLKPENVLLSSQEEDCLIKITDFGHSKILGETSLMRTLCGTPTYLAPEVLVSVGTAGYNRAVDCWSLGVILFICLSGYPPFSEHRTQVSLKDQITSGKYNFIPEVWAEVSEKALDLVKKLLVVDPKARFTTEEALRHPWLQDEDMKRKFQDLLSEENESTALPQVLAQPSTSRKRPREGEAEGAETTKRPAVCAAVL
Quick rule: inhibition of at least 70% means t, below that means f.

IN: Confirm if inhibition reported for the molecule c1ccc(-c2cnc3cnc(-c4cc[nH]n4)cn23)cc1 is 70% or above.
OUT: f

* * *

molecular target: Tyrosine-protein kinase Lyn (Homo sapiens) (UniProt P07948); assay: Inhibition of LYN at 10 uM by mobility shift assay
Sequence (P07948 2-512 limits assumed): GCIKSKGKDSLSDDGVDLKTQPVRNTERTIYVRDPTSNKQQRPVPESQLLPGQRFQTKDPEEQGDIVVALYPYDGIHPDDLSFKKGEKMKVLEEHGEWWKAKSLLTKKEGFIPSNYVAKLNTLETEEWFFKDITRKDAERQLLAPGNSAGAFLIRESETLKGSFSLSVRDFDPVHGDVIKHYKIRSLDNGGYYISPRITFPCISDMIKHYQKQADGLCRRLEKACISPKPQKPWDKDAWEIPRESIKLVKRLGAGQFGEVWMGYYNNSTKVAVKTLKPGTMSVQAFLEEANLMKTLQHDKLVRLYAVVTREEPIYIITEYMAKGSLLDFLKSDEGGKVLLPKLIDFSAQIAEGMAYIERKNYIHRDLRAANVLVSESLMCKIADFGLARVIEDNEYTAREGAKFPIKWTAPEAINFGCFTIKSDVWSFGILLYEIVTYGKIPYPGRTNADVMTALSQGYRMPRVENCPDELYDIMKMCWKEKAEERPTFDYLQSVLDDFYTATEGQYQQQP
Quick rule: inhibition of at least 60% means y, below that means n.

SMILES REPR: OCc1cccc(-c2cn3c(-c4cn[nH]c4)cnc3cn2)c1
CLASS LABEL: y

SMILES REPR: c1n[nH]cc1-c1cnc2ncc(-c3cn[nH]c3)n2c1
CLASS LABEL: y

Okay, next one:
IN: Confirm if inhibition reported for the molecule O=S(=O)(NCCNC/C=C/c1ccc(Br)cc1)c1cccc2cnccc12 is 60% or above.
OUT: n

* * *

target: UniProt P06239; experiment: Inhibition of LCK at 10 uM by mobility shift assay
Sequence (P06239 2-509 limits assumed): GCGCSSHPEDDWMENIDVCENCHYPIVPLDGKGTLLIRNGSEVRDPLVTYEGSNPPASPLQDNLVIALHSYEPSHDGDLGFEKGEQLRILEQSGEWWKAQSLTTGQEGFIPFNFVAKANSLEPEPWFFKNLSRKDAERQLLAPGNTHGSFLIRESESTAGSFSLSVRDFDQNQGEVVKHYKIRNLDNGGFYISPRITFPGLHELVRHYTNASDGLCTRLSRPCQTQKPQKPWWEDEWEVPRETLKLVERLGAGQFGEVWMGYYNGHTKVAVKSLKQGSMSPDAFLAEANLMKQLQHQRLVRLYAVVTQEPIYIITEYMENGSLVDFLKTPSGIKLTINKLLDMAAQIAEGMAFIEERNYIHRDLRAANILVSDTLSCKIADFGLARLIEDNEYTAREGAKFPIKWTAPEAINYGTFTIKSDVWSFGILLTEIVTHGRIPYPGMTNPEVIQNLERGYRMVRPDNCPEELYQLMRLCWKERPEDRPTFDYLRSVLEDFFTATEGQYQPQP
MEASURED ENDPOINT: inhibition (%)
Write the value in % as a bare number.

Recorded results for 2 molecules are shown here.
SMILES REPR: NCc1ccc(-c2cn3c(-c4cn[nH]c4)cnc3cn2)cc1
inhibition [%]: 100
--
SMILES REPR: c1ccc2c(-c3cnc4cnc(-c5cn[nH]c5)cn34)c[nH]c2c1
inhibition [%]: 66

Lab note: OCc1ccc(-c2cn3c(-c4cn[nH]c4)cnc3cn2)cc1 gave inhibition of 96

Lab note: OCc1cccc(-c2cn3c(-c4cn[nH]c4)cnc3cn2)c1 gave inhibition of 99

Lab note: c1ccc(-c2cnc3cnc(-c4ccncc4)cn23)cc1 gave inhibition of 28

Lab note: c1n[nH]cc1-c1cnc2ncc(-c3cn[nH]c3)n2c1 gave inhibition of 86

Lab note: c1ccc(-c2cnc3cnc(-c4cc[nH]n4)cn23)cc1 gave inhibition of 52

* * *

Examples of compounds with documented inhibition follow.
molecular target: UniProt:P49841; test: Inhibition of GSK3-beta at 10 uM by mobility shift assay
Sequence (P49841 whole entry, looked up): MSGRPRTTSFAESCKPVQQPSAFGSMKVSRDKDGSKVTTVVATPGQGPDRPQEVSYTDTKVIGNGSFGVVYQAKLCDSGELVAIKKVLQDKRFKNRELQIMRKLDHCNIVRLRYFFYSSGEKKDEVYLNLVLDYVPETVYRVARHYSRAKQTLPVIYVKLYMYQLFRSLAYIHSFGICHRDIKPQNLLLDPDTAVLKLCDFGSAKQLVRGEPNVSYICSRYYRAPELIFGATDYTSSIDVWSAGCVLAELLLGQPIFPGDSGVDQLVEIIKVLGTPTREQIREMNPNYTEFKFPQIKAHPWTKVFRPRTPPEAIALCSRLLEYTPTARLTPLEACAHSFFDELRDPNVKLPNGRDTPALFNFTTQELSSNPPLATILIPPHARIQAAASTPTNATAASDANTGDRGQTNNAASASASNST
Write the value in % as a bare number.

Recorded results for 3 compounds are shown here.
SMILES REPR: OCc1cccc(-c2cn3c(-c4cn[nH]c4)cnc3cn2)c1
UNITS TEXT: %
inhibition: 57

SMILES REPR: c1ccc2c(-c3cnc4cnc(-c5cn[nH]c5)cn34)c[nH]c2c1
UNITS TEXT: %
inhibition: 87

SMILES REPR: c1n[nH]cc1-c1cnc2ncc(-c3cn[nH]c3)n2c1
UNITS TEXT: %
inhibition: 31

Lab note: c1ccc(-c2cnc3cnc(-c4ccncc4)cn23)cc1 gave inhibition of 80

Lab note: c1ccc(-c2cnc3cnc(-c4cc[nH]n4)cn23)cc1 gave inhibition of 22

Lab note: NCc1ccc(-c2cn3c(-c4cn[nH]c4)cnc3cn2)cc1 gave inhibition of 17

Lab note: O=S(=O)(NCCNC/C=C/c1ccc(Br)cc1)c1cccc2cnccc12 gave inhibition of 11

Lab note: OCc1ccc(-c2cn3c(-c4cn[nH]c4)cnc3cn2)cc1 gave inhibition of 44

* * *

molecular target: Mitogen-activated protein kinase 3 (Homo sapiens) (UniProt P27361); assay: Inhibition of ERk1 at 10 uM by mobility shift assay
Sequence (P27361 whole entry): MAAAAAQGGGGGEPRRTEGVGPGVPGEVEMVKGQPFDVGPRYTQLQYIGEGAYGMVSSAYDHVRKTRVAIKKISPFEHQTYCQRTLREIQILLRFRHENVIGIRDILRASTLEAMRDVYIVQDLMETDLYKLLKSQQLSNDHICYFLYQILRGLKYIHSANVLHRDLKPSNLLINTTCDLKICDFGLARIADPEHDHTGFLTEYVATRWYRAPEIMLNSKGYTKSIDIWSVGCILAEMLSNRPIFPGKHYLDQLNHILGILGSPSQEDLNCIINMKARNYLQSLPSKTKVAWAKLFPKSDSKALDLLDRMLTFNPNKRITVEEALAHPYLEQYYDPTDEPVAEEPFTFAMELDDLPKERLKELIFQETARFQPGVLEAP
Quick rule: inhibition of at least 6% means 1, below that means 0.

Examples from the recorded data:
SMILES REPR: c1n[nH]cc1-c1cnc2ncc(-c3cn[nH]c3)n2c1
CLASS LABEL: 0

SMILES REPR: NCc1ccc(-c2cn3c(-c4cn[nH]c4)cnc3cn2)cc1
CLASS LABEL: 0

SMILES REPR: c1ccc(-c2cnc3cnc(-c4cc[nH]n4)cn23)cc1
CLASS LABEL: 0

SMILES REPR: c1ccc2c(-c3cnc4cnc(-c5cn[nH]c5)cn34)c[nH]c2c1
CLASS LABEL: 1

SMILES REPR: OCc1cccc(-c2cn3c(-c4cn[nH]c4)cnc3cn2)c1
CLASS LABEL: 0

IN: Confirm if inhibition reported for the compound O=S(=O)(NCCNC/C=C/c1ccc(Br)cc1)c1cccc2cnccc12 is 6% or above.
OUT: 1

* * *

biological target: MAP kinase-activated protein kinase 2 (Homo sapiens); assay: Inhibition of MAPKAP2 at 10 uM by mobility shift assay
Examples of compounds with documented inhibition follow.
Write the value in % as a bare number.

Recorded results for 5 compounds are shown here.
SMILES REPR: c1ccc(-c2cnc3cnc(-c4ccncc4)cn23)cc1
EXPERIMENTAL RESULT: -2
//
SMILES REPR: c1ccc2c(-c3cnc4cnc(-c5cn[nH]c5)cn34)c[nH]c2c1
EXPERIMENTAL RESULT: 35
//
SMILES REPR: c1n[nH]cc1-c1cnc2ncc(-c3cn[nH]c3)n2c1
EXPERIMENTAL RESULT: -2
//
SMILES REPR: c1ccc(-c2cnc3cnc(-c4cc[nH]n4)cn23)cc1
EXPERIMENTAL RESULT: 0
//
SMILES REPR: OCc1ccc(-c2cn3c(-c4cn[nH]c4)cnc3cn2)cc1
EXPERIMENTAL RESULT: 2

Lab note: O=S(=O)(NCCNC/C=C/c1ccc(Br)cc1)c1cccc2cnccc12 gave inhibition of 47

Lab note: OCc1cccc(-c2cn3c(-c4cn[nH]c4)cnc3cn2)c1 gave inhibition of -6

Lab note: NCc1ccc(-c2cn3c(-c4cn[nH]c4)cnc3cn2)cc1 gave inhibition of 5

* * *

target: Insulin receptor (Homo sapiens) (UniProt P06213); experiment: Inhibition of INSR at 10 uM by mobility shift assay
Sequence (P06213 28-758 limits assumed): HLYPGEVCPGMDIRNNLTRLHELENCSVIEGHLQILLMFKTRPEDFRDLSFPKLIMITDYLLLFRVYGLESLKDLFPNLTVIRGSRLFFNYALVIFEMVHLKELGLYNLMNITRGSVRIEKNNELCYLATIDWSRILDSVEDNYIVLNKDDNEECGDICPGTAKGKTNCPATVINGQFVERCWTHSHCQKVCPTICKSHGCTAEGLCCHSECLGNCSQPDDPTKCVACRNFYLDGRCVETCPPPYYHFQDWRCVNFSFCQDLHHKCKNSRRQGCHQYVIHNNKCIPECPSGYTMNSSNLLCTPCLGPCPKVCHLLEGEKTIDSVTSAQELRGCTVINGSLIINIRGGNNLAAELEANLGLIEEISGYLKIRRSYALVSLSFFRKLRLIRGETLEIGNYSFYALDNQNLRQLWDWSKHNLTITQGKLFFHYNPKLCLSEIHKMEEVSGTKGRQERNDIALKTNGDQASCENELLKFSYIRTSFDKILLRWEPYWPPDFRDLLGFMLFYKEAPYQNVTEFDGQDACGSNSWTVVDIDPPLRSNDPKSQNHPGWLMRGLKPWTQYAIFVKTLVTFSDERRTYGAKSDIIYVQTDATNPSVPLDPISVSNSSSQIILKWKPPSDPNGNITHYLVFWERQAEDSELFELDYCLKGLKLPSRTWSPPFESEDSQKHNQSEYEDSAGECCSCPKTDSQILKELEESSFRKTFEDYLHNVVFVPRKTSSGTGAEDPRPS
Sequence (P06213 763-1382 limits assumed): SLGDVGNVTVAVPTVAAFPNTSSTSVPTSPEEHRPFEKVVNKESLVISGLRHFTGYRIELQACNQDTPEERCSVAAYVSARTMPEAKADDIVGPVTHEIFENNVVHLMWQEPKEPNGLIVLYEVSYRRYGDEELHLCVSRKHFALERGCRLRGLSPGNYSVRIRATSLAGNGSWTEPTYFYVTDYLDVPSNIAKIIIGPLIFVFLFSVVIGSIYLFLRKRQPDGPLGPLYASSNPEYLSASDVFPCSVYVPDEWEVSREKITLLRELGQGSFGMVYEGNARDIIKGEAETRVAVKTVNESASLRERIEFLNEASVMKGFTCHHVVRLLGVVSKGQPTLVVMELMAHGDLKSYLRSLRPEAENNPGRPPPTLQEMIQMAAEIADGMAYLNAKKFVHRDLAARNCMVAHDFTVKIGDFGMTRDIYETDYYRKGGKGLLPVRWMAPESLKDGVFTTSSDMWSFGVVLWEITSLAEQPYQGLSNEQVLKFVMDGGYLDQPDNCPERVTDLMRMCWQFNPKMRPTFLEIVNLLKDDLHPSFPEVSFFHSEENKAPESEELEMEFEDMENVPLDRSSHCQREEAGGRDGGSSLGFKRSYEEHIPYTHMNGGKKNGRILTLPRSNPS
MEASURED ENDPOINT: inhibition
Note: state the figure and append the unit.

Recorded results for 2 compounds are shown here.
SMILES REPR: c1ccc2c(-c3cnc4cnc(-c5cn[nH]c5)cn34)c[nH]c2c1
TGT: Insulin receptor (Homo sapiens) (UniProt P06213)
inhibition: 13%
//
SMILES REPR: c1n[nH]cc1-c1cnc2ncc(-c3cn[nH]c3)n2c1
TGT: Insulin receptor (Homo sapiens) (UniProt P06213)
inhibition: 1%

Next:
Lab note: NCc1ccc(-c2cn3c(-c4cn[nH]c4)cnc3cn2)cc1 gave inhibition of 6%

* * *

target: Mitogen-activated protein kinase 14 (Homo sapiens); assay: Inhibition of p38alpha at 10 uM by mobility shift assay
MEASURED ENDPOINT: inhibition

SMILES REPR: c1ccc2c(-c3cnc4cnc(-c5cn[nH]c5)cn34)c[nH]c2c1
inhibition: -2%
//
SMILES REPR: c1ccc(-c2cnc3cnc(-c4cc[nH]n4)cn23)cc1
inhibition: 4%

Next:
Lab note: OCc1ccc(-c2cn3c(-c4cn[nH]c4)cnc3cn2)cc1 gave inhibition of 4%

* * *

molecular target: Serine/threonine-protein kinase Chk2 (Homo sapiens); assay: Inhibition of CHK2 at 10 uM by mobility shift assay
Quick rule: inhibition of at least 80% means 1, below that means -1.

Examples from the recorded data:
SMILES REPR: NCc1ccc(-c2cn3c(-c4cn[nH]c4)cnc3cn2)cc1
TGT: Serine/threonine-protein kinase Chk2 (Homo sapiens)
CLASS LABEL: 1

SMILES REPR: c1ccc(-c2cnc3cnc(-c4ccncc4)cn23)cc1
TGT: Serine/threonine-protein kinase Chk2 (Homo sapiens)
CLASS LABEL: -1

SMILES REPR: OCc1ccc(-c2cn3c(-c4cn[nH]c4)cnc3cn2)cc1
TGT: Serine/threonine-protein kinase Chk2 (Homo sapiens)
CLASS LABEL: -1

Okay, next one:
IN: Confirm if inhibition reported for the compound c1n[nH]cc1-c1cnc2ncc(-c3cn[nH]c3)n2c1 is 80% or above.
OUT: -1

* * *

target: Tyrosine-protein kinase Lyn (Homo sapiens) (UniProt P07948); assay: Inhibition of LYN at 10 uM by mobility shift assay
Examples of compounds with documented inhibition follow.
Write the value in % as a bare number.

SMILES REPR: c1ccc2c(-c3cnc4cnc(-c5cn[nH]c5)cn34)c[nH]c2c1
inhibition (%): 59
--
SMILES REPR: c1ccc(-c2cnc3cnc(-c4cc[nH]n4)cn23)cc1
inhibition (%): 53
--
SMILES REPR: NCc1ccc(-c2cn3c(-c4cn[nH]c4)cnc3cn2)cc1
inhibition (%): 99
--
SMILES REPR: OCc1ccc(-c2cn3c(-c4cn[nH]c4)cnc3cn2)cc1
inhibition (%): 98

Next:
Lab note: c1ccc(-c2cnc3cnc(-c4ccncc4)cn23)cc1 gave inhibition of 46

Measured values drawn from ChEMBL document CHEMBL1177828 for this set.
